Recorded solubility in G1/S (log2) values for a group of substances are listed next.
# System: HeLa Kyoto;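 further: HeLa Kyoto cells arrested at G1/S by double thymidine block, proteins quantified by TMT10plex mass spectrometry in mild NP-40 versus SDS extracts, three biological replicates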
# method-notes: solubility in G1/S (NP-40 vs SDS abundance) (log2 ratio); higher = more soluble
# cond: cell cycle stage: G1/S
# print the numeric value only

Some entries whose results are on file:
MGHRFLRGLLTLLLPPPPLYTRHRMLGPESVPPPKRSRSKLMAPPRIGTHNGTFHCDEALACALLRLLPEYRDAEIVRTRDPEKLASCDIVVDVGGEYDPRRHRYDHHQRSFTETMSSLSPGKPWQTKLSSAGLIYLHFGHKLLAQLLGTSEEDSMVGTLYDKMYENFVEEVDAVDNGISQWAEGEPRYALTTTLSARVARLNPTWNHPDQDTEAGFKRAMDLVQEEFLQRLDFYQHSWLPARALVEEALAQRFQVDPSGEIVELAKGACPWKEHLYHLESGLSPPVAIFFVIYTDQAGQWRIQCVPKEPHSFQSRLPLPEPWRGLRDEALDQVSGIPGCIFVHASGFIGGHRTREGALSMARATLAQRSYLPQIS [C12ORF10]
0.418
GPATCH8
-0.561

Please find the next substance below.
Problem: Any idea what solubility in G1/S (log2) was measured for MDLSELERDNTGRCRLSSPVPAVCRKEPCVLGVDEAGRGPVLGPMVYAICYCPLPRLADLEALKVADSKTLLESERERLFAKMEDTDFVGWALDVLSPNLISTSMLGRVKYNLNSLSHDTATGLIQYALDQGVNVTQVFVDTVGMPETYQARLQQSFPGIEVTVKAKADALYPVVSAASICAKVARDQAVKKWQFVEKLQDLDTDYGSGYPNDPKTKAWLKEHVEPVFGFPQFVRFSWRTAQTILEKEAEDVIWEDSASENQEGLRKITSYFLNEGSQARPRSSHRYFLERGLESATSL [RNASEH2A] ?
Solution: 0.206

src = the supplement of paper PMC5998384
